- measurement protocol: MM1S myeloma cell viability, profiling panel, resazurin fluorescence, basal, 24 h, PK04 Diversity Set (AID 1174);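 note: MM1S multiple myeloma cell line; test concentration not given here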
- experimental setup: higher = more signal, called active from +8 up or from −8 down
Consider the reported z-score of an entry and match it to a band in low end: < -0.3; middle: ≥ -0.3 and < 0.6; high end: ≥ 0.6

molecule	group label
C[C@@H]1CC[C@H]2C(=O)O[C@H](COc3ccc(C(C)(C)C)cc3)CN2[C@H]1c1ccc(Br)cc1	high end
CC1(C)OCC(C(O)C2=CCCCC2=O)CO1 (configuration not stated)	high end
CCOC(=O)CCN1C(=O)[C@H]2[C@H]3[C@H](O)[C@H](O)CC(=O)[C@H]3CC[C@H]2C1=O	middle

Consider CCOC(=O)[C@H](CC(C)C)NC(=O)CCC1CC(OC(=O)NCCc2ccc(F)cc2)CC2(CCCC(COC(=O)NCc3ccccc3)O2)O1 (some centres not stated) . To which z-score class does it belong?
middle

Consider CC(C)c1ccc(NN2C(C(O)c3ccc4c(c3)OCO4)C=CC3C(=O)N(c4ccccc4)C(=O)C32)cc1 (configuration not stated) . To which z-score class does it belong?
middle

Consider `O=C1[C@H]2[C@H]3[C@H](O)[C@H](O)CC(=NO[C@@H]4O[C@H](CO)[C@@H](O)[C@H](O)[C@H]4O)[C@@H]3CC[C@H]2C(=O)N1Cc1ccccc1` . To which z-score class does it belong?
middle

Consider COC(=O)CC1OC1[C@H](C)[C@@H](OC)C(C)C (some centres not stated) . To which z-score class does it belong?
low end

Consider `CCCC=C(CCC)[C@@H](NC(=O)c1ccc(-c2ccccc2)cc1)c1ccc(C(=O)OC)cc1` . To which z-score class does it belong?
low end

Consider `NC(=O)NCC#Cc1ccc2c(c1)[C@]1(C(=O)N2)[C@H](c2ccc(O)cc2)N2[C@H](c3ccccc3)[C@H](c3ccccc3)OC(=O)[C@H]2[C@@H]1C(=O)N1CCCCCCC1` . To which z-score class does it belong?
high end

Consider `CC(C)NC(=O)[C@@]1(C)c2ccccc2C(=O)N(Cc2cc(F)cc(C(F)(F)F)c2)[C@H]1c1ccc(CO)cc1` . To which z-score class does it belong?
middle

Consider `COc1ccccc1CN1C(=O)c2ccccc2[C@@]2(Cc3ccccc3N(C(C)C)C2=O)[C@@H]1c1ccc(CO)cc1` . To which z-score class does it belong?
low end

----------
- measurement protocol: P. aeruginosa biofilm formation inhibitors, primary screen, PAO1 strain, BacTiter-Glo luminescence, LB-PBS (AID 1144)
- experimental setup: 12 h, higher = more signal
metric name: z-score
Give bare numbers.

Below are worked cases with known answers.
compound	metric name	reported
C[C@@H]1C=CCC(=O)OC[C@H](C)C(=O)N[C@@H](C)C(=O)OC1	z-score	-0.298
COc1cccc([C@H]2Oc3ccc(OC)cc3C(=NO[C@H](C)c3cn([C@@H]4COC[C@H]4O)nn3)[C@@H]2O)c1	z-score	-0.302
C=COC[C@H]1CN2[C@@H](CC[C@@H](C)[C@@H]2c2ccc(Br)cc2)C(=O)O1	z-score	-1.13
C=C(/C(=C/C[C@@H](OC(=O)c1ccncc1)c1ccc(OCCO)cc1)c1cnc2ccccc2c1)C(C)C	z-score	-0.56
O=C1O[C@@H](c2ccccc2)[C@@H](c2ccccc2)N2[C@@H](c3ccccc3OCCO)[C@]3(C(=O)Nc4ccc(C#CCCO)cc43)[C@@H](C(=O)O)[C@H]12	z-score	-0.923
CC(C)CN1CCc2nc(-c3ccccc3)c3c(c2CC1)CO[C@@H](C)C3	z-score	-0.705
C=CCOC(=O)[C@H]1[C@@H]2C(=O)O[C@@H](c3ccccc3)[C@@H](c3ccccc3)N2[C@@H](c2ccc(OCCOC(=O)[C@H]3C[C@H]4C(=O)N5CCC[C@H]5C(=O)N4[C@H]3c3cccc(OCCO)c3)cc2)[C@]12C(=O)Nc1ccc(I)cc12	z-score	-0.315
CCc1cc2c(nc1CC)CCN(CCC(C)=NOC[C@@H](O)COCc1ccco1)C2	z-score	0.132

Take each entry in turn and give its z-score.
1. CCN(CC)c1ccc(N2CC=CC34O[C@@H]5/C=C\CCC(C)OC(=O)C5[C@H]3C(=O)N(CCCO)[C@@H]4C2=O)cc1 (stereo partly drawn)
2. CC1CC/C=C\[C@H]2OC34C=CCN(C(C)C)C(=O)[C@H]3N(CCCO)C(=O)[C@@H]4C2C(=O)O1 (stereo partly drawn)
3. CCN1C(=O)[C@H]2[C@H]3[C@H](O)[C@H](O)CC(=NO[C@@H]4O[C@H](CO)[C@@H](O)[C@H](O)[C@H]4O)[C@@H]3CC[C@H]2C1=O
4. COCCOC(=O)N1C(=O)[C@@]2(c3ccccc31)[C@H](C(N)=O)[C@H]1C(=O)O[C@H](c3ccccc3)[C@H](c3ccccc3)N1[C@@H]2c1ccccc1OCCO
5. COc1cccc([C@H]2Oc3ccc(OC)cc3C(=NOC(C)CN3CCCc4nc(C)c(C)cc43)[C@@H]2O)c1 (stereo partly drawn)

1. 3.06
2. 1.15
3. 0.00567
4. 1.67
5. 1.28

----------
- study target: Alpha-bungarotoxin (Bungarus multicinctus)
- measurement protocol: alpha-bungarotoxin binders on microarray, profiling panel, artefact control for SMM control protein annotation, biochemical, small-molecule microarray, Alexa647 label, 635/667 nm fluorescence (AID 1117)
- experimental setup: alpha-BTX-A647 binding fluorescence, higher = more signal
I'd be grateful if you could share measured composite z-score for these entries.
Numbers only.

Below are worked cases with known answers.
compound	composite z-score
COC(=O)[C@@H]1N=C(c2ccc(OCCCO)cc2)O[C@@H]1c1ccccc1N=[N+]=[N-]	1.42
C[C@@H](c1ccccc1)N1C(=O)[C@H]2[C@H]3[C@H](O)C=CC(=O)[C@@H]3CC[C@H]2C1=O	0.0013
COCCCNC(=O)[C@]1(CCC(=O)OC(C)(C)C)N=C(c2ccc(OCCCO)cc2)O[C@@H]1c1ccccc1N=[N+]=[N-]	1.64

Take each entry in turn and give its composite z-score.
1. C=CCNC(=O)[C@H]1[C@@H]2C(=O)O[C@@H](c3ccccc3)[C@@H](c3ccccc3)N2[C@@H](c2ccc(O)cc2)[C@]12C(=O)N(C(=O)OCCOC)c1ccc(C#CC3=CCCCC3)cc12
2. CO[C@@H]1COC(=O)CC=C[C@@H](C)[C@@H]2C=C[C@H](O)[C@@H](COC(=O)[C@H](C)NC(=O)CC=C[C@H]1C)O2
3. NC(=O)NCC#Cc1ccc2c(c1)[C@]1(C(=O)N2)[C@H](c2ccc(O)cc2)N2[C@H](c3ccccc3)[C@H](c3ccccc3)OC(=O)[C@H]2[C@@H]1C(=O)N1CCCCCCC1
4. CC(C)=NOCc1cccc(-c2cc(-c3ccccc3)no2)c1
5. CCOc1ccc(N2C(=O)/C(=C/C=C/c3ccccc3OC)S(=O)(=O)C2c2cccc([N+](=O)[O-])c2)cc1 (stereo not drawn)

[1.79, 0.304, 1.34, 0.553, 0.321]

----------
- measurement protocol: small-molecule microarray binders of probe aXIP, primary screen, biochemical, NeuroSMM set, 635/667 nm fluorescence (AID 1119);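 note: probe is the protein aXip251-270 applied at 1 µg/mL to compound-printed slides; binding of probe to printed compounds measured as 667 nm fluorescence plus signal to noise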
- experimental setup: higher = more signal, called active from +8 up or from −8 down
metric name: composite Z-score
Answers are plain numbers.

smiles str	composite Z-score
CCN1C(=O)[C@H]2[C@H]3[C@H](O)[C@H](O)CC(=NOCc4ccccc4)[C@@H]3CC[C@H]2C1=O	1.92
CCOC(=O)NN=C1C[C@@H](O)[C@@H](O)[C@@H]2[C@@H]3C(=O)N(CC)C(=O)[C@@H]3CC[C@@H]12	0.112

Take each entry in turn and give its composite Z-score.
1. CO[C@H]1O[C@H](CO)[C@@H](OC(=O)Nc2ccc(C#N)cc2)[C@H](OC(=O)c2cc3ccccc3[nH]2)[C@H]1OC(=O)c1cc2ccccc2[nH]1
2. COc1ccc(COC(=O)NN=C2C[C@@H](O)[C@@H](O)[C@@H]3[C@@H]4C(=O)N(Cc5ccc6c(c5)OCO6)C(=O)[C@@H]4CC[C@@H]23)cc1
3. O=C1[C@H]2[C@H]3[C@H](O)[C@H](O)CC(=NO[C@@H]4O[C@H](CO)[C@@H](O)[C@H](O)[C@H]4O)[C@@H]3CC[C@H]2C(=O)N1Cc1ccccc1
4. CC(C)CON=C1C[C@@H](O)[C@@H](O)[C@@H]2[C@@H]3C(=O)N(C[C@@H]4CCCO4)C(=O)[C@@H]3CC[C@H]12
5. O=C1[C@H]2[C@H]3[C@H](O)[C@H](O)CC(=NOC[C@@H](O)COCc4ccco4)[C@H]3CC[C@H]2C(=O)N1c1cccc(Oc2ccccc2)c1
6. CN1C(=O)[C@@]2(CCC(=O)OC(C)(C)C)N=C(c3ccc(OCCCO)cc3)O[C@H]2c2ccccc21
7. CO[C@@H]1COC(=O)CCC[C@@H](C)[C@H](OC)COC(=O)[C@H](Cc2ccccc2)NC(=O)CC=C[C@H]1C
8. O=C1C[C@]2(c3ccc([N+](=O)[O-])cc3)C(=O)N(CCN3CCOCC3)c3cc(CO)ccc3[C@H]2N1CC12CC3CC(CC(C3)C1)C2

1: 1.79; 2: -0.463; 3: 0.0769; 4: -0.311; 5: -0.705; 6: -0.428; 7: 0.274; 8: 0.83

Param item = `CCOC(=O)CCN1C(=O)[C@H]2[C@H]3[C@H](O)[C@H](O)CC(=NOC[C@@H](O)COCc4ccco4)[C@@H]3CC[C@H]2C1=O` ; retrieve measured composite Z-score.
-0.244
